Source of measurements: patent US9029337B2

Some substances, each annotated with its measured % Inhibition.
Test system: human Factor 7 mRNA
Test: Antisense inhibition of human Factor 7 mRNA in HepB3 cells, 50 nM antisense oligonucleotide, lipofectin
Format: cell-based
Conditions: lipofectin, 50 nM antisense oligonucleotide, approximately 24 hours, Factor 7 mRNA by real-time RT-PCR (RTS 2927), relative to untreated control
Strand notation (5' to 3'): a small letter for the sugar, then the base; units joined by * are phosphorothioate-linked, units joined directly phosphodiester-linked; [ ] holds rarer units or linkages, { } end groups; capitals alone tell only the bases. e = 2'-O-(2-methoxyethyl) (MOE); [5mC] = 5-methylcytosine; d = 2'-deoxy (DNA)
Reply with just the number (in %).

The following substances have reported results that may help.
416532 (antisense eG*eG*eA*e[5mC]*e[5mC]*d[5mC]*dA*dG*dA*dT*dG*dA*d[5mC]*d[5mC]*dA*eG*e[5mC]*eA*eG*eG) [compound 416532]	12
416511 (antisense eT*eT*eG*e[5mC]*eT*dG*dG*dG*dA*dG*dG*dA*d[5mC]*dG*dA*eG*eG*e[5mC]*e[5mC]*eT) [compound 416511]	35
416459 (antisense eT*eG*eG*eT*e[5mC]*dA*dG*dT*dG*dA*dG*dG*dA*d[5mC]*d[5mC]*eA*e[5mC]*eG*eG*eG) [compound 416459]	23
416494 (antisense e[5mC]*eA*eG*eA*eT*dT*dT*dA*dA*dA*d[5mC]*dT*dG*d[5mC]*dA*eG*eA*eT*eG*eA) [compound 416494]	0
407935 (antisense eA*eT*eG*e[5mC]*eA*dT*dG*dG*dT*dG*dA*dT*dG*d[5mC]*dT*eT*e[5mC]*eT*eG*eA) [compound 407935]	72

Reported % Inhibition, substance 416515 (antisense eT*eA*eG*eG*e[5mC]*dA*dT*dG*dA*d[5mC]*d[5mC]*dA*dT*d[5mC]*d[5mC]*eT*e[5mC]*eA*eA*eT) [compound 416515] : ____
39

###

Test system: human Factor 7 mRNA
Experiment: Antisense inhibition of human Factor 7 with short (14-mer) oligonucleotides in HepB3 cells, electroporation 1,000 nM
Type: cell-based
Conditions: electroporation, 1,000 nM antisense oligonucleotide, approximately 24 hours, Factor 7 mRNA relative to untreated control cells
Strand notation (5' to 3'): a small letter for the sugar, then the base; units joined by * are phosphorothioate-linked, units joined directly phosphodiester-linked; [ ] holds rarer units or linkages, { } end groups; capitals alone tell only the bases. e = 2'-O-(2-methoxyethyl) (MOE); [5mC] = 5-methylcytosine; d = 2'-deoxy (DNA)
Lab note: compare % Inhibition against 40%. Equal or greater, write Yes. Smaller, write No.

Worked set:
435835 (antisense eT*eT*dA*dT*dT*dT*dG*dG*dG*d[5mC]*dA*dT*eG*eG) [compound 435835]	No
435791 (antisense eA*eT*dG*dA*dG*dA*dA*dA*dT*dG*d[5mC]*dT*eT*eT) [compound 435791]	No
435758 (antisense e[5mC]*e[5mC]*d[5mC]*dT*dG*dA*dG*d[5mC]*dT*dG*dG*dG*e[5mC]*eA) [compound 435758]	No
435490 (antisense e[5mC]*e[5mC]*dT*dG*dG*dT*dG*dT*dA*d[5mC]*dA*d[5mC]*e[5mC]*e[5mC]) [compound 435490]	Yes
435491 (antisense e[5mC]*e[5mC]*d[5mC]*dT*dG*dG*dT*dG*dT*dA*d[5mC]*dA*e[5mC]*e[5mC]) [compound 435491]	Yes

Is reported % Inhibition greater than or equal to 40% here: 435679 (antisense e[5mC]*eG*d[5mC]*dT*dG*dA*dG*dG*dT*d[5mC]*dG*dT*eG*e[5mC]) [compound 435679]
Yes

Is reported % Inhibition greater than or equal to 40% here: 435762 (antisense e[5mC]*eA*dG*dG*dT*dG*dT*dT*dA*dA*dG*dG*eT*eG) [compound 435762]
No

Is reported % Inhibition greater than or equal to 40% here: 435822 (antisense e[5mC]*e[5mC]*dA*dG*dG*dA*dG*d[5mC]*d[5mC]*dT*dT*dT*eA*e[5mC]) [compound 435822]
No

Is reported % Inhibition greater than or equal to 40% here: 435763 (antisense eA*eG*dG*dA*dG*dA*dA*dA*dG*dG*dT*d[5mC]*eA*eG) [compound 435763]
No

Is reported % Inhibition greater than or equal to 40% here: 435660 (antisense e[5mC]*e[5mC]*dG*dT*d[5mC]*dT*dG*d[5mC]*d[5mC]*dA*dG*d[5mC]*eA*eG) [compound 435660]
Yes

Is reported % Inhibition greater than or equal to 40% here: 435829 (antisense eG*eG*dG*dT*dA*dG*dA*d[5mC]*d[5mC]*d[5mC]*dT*d[5mC]*eA*eG) [compound 435829]
No

Is reported % Inhibition greater than or equal to 40% here: 435785 (antisense eA*eG*d[5mC]*dT*dT*d[5mC]*dT*d[5mC]*dA*d[5mC]*d[5mC]*dA*e[5mC]*eG) [compound 435785]
Yes
